B1: CPEB3 Ribozyme (parent)
chain: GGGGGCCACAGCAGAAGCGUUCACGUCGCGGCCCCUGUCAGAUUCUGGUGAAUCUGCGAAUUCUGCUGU

variants of: B1; test: self-cleavage, relative activity (ratio to wild type); higher = more cleavage; co-transcriptional
MEASURED_PROPERTY: self-cleavage
No unit in the answer, please; the number alone is enough.

Write down self-cleavage measured for item U21C U62A 0.661

Write down self-cleavage measured for item C39U C45G 0.74

Write down self-cleavage measured for item A15G G41C 0.777

Write down self-cleavage measured for item A8U U21A 0.994

Write down self-cleavage measured for item U55G G56U 0.817

Write down self-cleavage measured for item G48A U62A 0.973

Write down self-cleavage measured for item C18A G48A 0.227

Write down self-cleavage measured for item G50C A51G 0.982

Write down self-cleavage measured for item C32G U53G 0.382

Write down self-cleavage measured for item A13C G48C 0.917

Write down self-cleavage measured for item A8U U36G 0.163

Write down self-cleavage measured for item C54U U64A 0.905

Write down self-cleavage measured for item A10U G68U 0.982

Write down self-cleavage measured for item C29U C35A 0.186

Write down self-cleavage measured for item C24U A60U 0.299

Write down self-cleavage measured for item G17A C35U 0.345

Write down self-cleavage measured for item C33A A42C 0.405

Write down self-cleavage measured for item G37U G58A 0.17

Write down self-cleavage measured for item C33G U46A 0.438

Write down self-cleavage measured for item C32A G58U 0.914

Write down self-cleavage measured for item U46G U69G 1.04

Write down self-cleavage measured for item G25A G56C 0.213
